Test system: SF-539 CNS
Assay: NCI tumour cell line growth inhibition, 48 h
measuredProperty: TGI (µM)
Dear colleague, please return just the value in µM, with no unit written.

Prompt: # query: TGI of entry Clc1ccc(C2CC(c3cccc(Nc4ccncc4)c3)=NN2c2ccc(Cl)cc2)cc1 (stereo unspecified)
Completion: 3.03

Prompt: Entry under review: CC(=O)c1c(SCCN2CCOCC2)n(-c2ccccc2)c(=S)n(-c2ccccc2)c1=O . Reported TGI?
Completion: 43.9

Prompt: Fill in the blank: the reported TGI of N#Cc1ccc(-c2c(-c3ncn[nH]3)sc(N3CCOCC3)c2C#N)c(F)c1 is ____.
Completion: 4.53
